Molecular target: T1, RXFP1 receptor (UniProt Q9HBX9 1-757, limits assumed)
T1 sequence (looked up): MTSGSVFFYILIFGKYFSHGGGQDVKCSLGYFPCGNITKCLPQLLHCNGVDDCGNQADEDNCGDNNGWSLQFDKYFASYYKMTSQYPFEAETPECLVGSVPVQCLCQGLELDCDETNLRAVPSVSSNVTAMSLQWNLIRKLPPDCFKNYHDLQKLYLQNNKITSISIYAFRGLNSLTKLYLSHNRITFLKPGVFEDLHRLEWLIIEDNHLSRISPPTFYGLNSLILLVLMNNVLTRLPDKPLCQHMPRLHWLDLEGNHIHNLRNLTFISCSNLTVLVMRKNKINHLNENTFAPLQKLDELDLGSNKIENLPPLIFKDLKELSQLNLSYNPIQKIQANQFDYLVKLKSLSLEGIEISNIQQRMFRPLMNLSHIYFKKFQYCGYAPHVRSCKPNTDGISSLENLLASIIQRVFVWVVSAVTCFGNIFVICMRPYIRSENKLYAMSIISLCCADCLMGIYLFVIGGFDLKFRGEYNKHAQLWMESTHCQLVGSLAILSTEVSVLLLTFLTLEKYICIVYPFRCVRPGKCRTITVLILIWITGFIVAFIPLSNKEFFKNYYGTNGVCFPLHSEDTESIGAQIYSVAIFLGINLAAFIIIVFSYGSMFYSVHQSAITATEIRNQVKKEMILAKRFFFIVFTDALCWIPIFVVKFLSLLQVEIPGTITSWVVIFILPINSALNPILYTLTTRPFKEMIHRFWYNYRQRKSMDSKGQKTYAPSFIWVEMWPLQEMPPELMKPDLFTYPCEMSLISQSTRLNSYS
Experiment: cell-based or functional assay
*1 amine or outer side, *2 acyl side, *3 side chain or, on linkers, in order; H or OH if unused. Primed or numbered codes have the meaning given here. Side-chain parts run from the residue outwards. [ ]: non-standard residue; d: D form. The star is where a group is joined. γGlu = O=C(O)[C@H](CCC(=O)[*:2])N[*:1]; Stearoyl = CCCCCCCCCCCCCCCCCC(=O)*; Palmitoyl = CCCCCCCCCCCCCCCC(=O)*; Cit = NC(=O)NCCC[C@H](N)C(=O)O; αMeK = C[C@](N)(CCCCN)C(=O)O; Nle = CCCC[C@H](N)C(=O)O; PEG2′ = PEG2 spacer unit; PEG2″ = not defined here; Aib = CC(C)(N)C(=O)O
MEASUREMENT TYPE: EMax, OVCAR 5 cells (cAMP)

[[record]]
binder = "Ac-LEGREKVRAQI[Aib][Aib]EG[Nle]STWS[Aib]RKKK[PEG2″][PEG2″][PEG2″][PEG2″][γGlu][γGlu][γGlu]K([γGlu-Palmitoyl])-NH2 [peptide of SEQ ID NO: 108]"
reading = "94%"

[[record]]
binder = "Ac-LEGREKVRAK(Ac)I[Aib][Aib]EG[Nle]STWS[αMeK]RKK(Ac)[PEG2′][PEG2′][PEG2′][PEG2′]K([γGlu-γGlu-γGlu-γGlu-Palmitoyl])-NH2 [peptide of SEQ ID NO: 131]"
reading = "92%"

[[record]]
binder = "Ac-LEGREKVRAQI[Aib][Aib]EG[Nle]STWS[Aib]RKK(Ac)[PEG2′][PEG2′][γGlu][γGlu]K([γGlu-Palmitoyl])-NH2 [peptide of SEQ ID NO: 118]"
reading = "86%"

[[record]]
binder = "Ac-LEGREKVRAK(Ac)I[Aib][Aib]EG[Nle]STWS[Aib][Cit]AK(Ac)K([PEG2′-PEG2′-PEG2′-γGlu-γGlu-γGlu-Stearoyl])-NH2 [peptide of SEQ ID NO: 126]"
reading = "91%"

[[record]]
binder = "Ac-LEGREKVRAK(Ac)I[Aib][Aib]EG[Nle]STWS[Aib]RKKK([PEG2′-PEG2′-PEG2′-PEG2′-γGlu-γGlu-γGlu-Stearoyl])-NH2 [peptide of SEQ ID NO: 91]"
reading = "88%"

[[record]]
binder = "Ac-LEGREKVRAK(Ac)I[Aib][Aib]EGQSTYS[Aib]RKK(Ac)K([PEG2′-PEG2′-PEG2′-γGlu-γGlu-γGlu-Palmitoyl])-NH2 [peptide of SEQ ID NO: 44]"
reading = "75%"


Entry source: patent US20190233493A1
